meta.source: paper PMC10002984

System: male rats with HFD-induced obesity
procedure-text: Blood glucose, insulin and leptin levels and insulin resistance index in obese rats
Assay type: in vivo, male Wistar rats
condition-info: blood, before treatment (baseline), M ± SEM, n = 5
Marks after values point to notes of the source that are not given here.
measurement-type: Leptin, Before

{"compound": "O=c1c(CO)n[nH]c2ccc(F)cc12 [Compound 2]", "Leptin, Before": "3.27 ± 0.38 ^a ng/mL"}

The following compounds each have a reported value; give each one's Leptin, Before.
1. O=c1c(CO)n[nH]c2ccccc12 [Compound 1]
2. O=c1c(CO)n[nH]c2ccc(Br)cc12 [Compound 4]
3. O=c1c(CO)n[nH]c2ccc(Cl)cc12 [Compound 3]

["3.06 ± 0.40 ^a ng/mL", "3.17 ± 0.25 ^a ng/mL", "2.93 ± 0.42 ^a ng/mL"]
